Target: Dopamine, D4.4 (Human Recombinant) (Homo sapiens)
Construct: expressed in transfected cells; host or cells: CHO cells (membranes)
Sequence (P21917 1-419): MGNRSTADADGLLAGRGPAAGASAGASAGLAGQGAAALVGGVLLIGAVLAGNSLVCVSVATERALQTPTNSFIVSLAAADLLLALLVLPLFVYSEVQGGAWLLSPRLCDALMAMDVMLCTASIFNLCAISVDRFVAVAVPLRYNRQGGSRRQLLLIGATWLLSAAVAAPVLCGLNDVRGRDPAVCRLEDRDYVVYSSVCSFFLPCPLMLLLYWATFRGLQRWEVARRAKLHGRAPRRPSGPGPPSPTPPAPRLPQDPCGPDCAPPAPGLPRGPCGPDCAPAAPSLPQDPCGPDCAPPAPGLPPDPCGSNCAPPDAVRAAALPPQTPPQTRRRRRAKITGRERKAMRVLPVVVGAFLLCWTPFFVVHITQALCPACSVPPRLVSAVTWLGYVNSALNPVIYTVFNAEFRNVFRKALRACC
Assay: dopamine D4.4 receptor binding assay, [3H]spiperone, human recombinant (CHO cells)
Details: 1 h, concentration 1.0E-6, average, N = 2, read-out: % Specific Binding
Experimental: [The source words this procedure for another target and reports this target under the same test.] Following incubation, the membranes were rapidly filtered under vacuum through GF/B glass fiber filters (Packard). The filters were then washed several times with an ice-cold buffer using a Packard cell harvester. Bound radioactivity was measured with a scintillation counter (Topcount, Packard) using a liquid scintillation cocktail (Microscint 0, Packard). […] Results are expressed as a percent of control specific binding obtained in the presence of the test compounds. […]
activity at 1 µM overview
Record the value in %, omitting the unit from your answer.

Recorded activity at 1 µM, per entry:
- molecular-string: "Clc1cccc(CN2CCC(c3nc(-c4cccs4)no3)CC2)c1"
  endpoint-unit: "%"
  activity at 1 µM: 1.74
- molecular-string: "COc1ccc(CN2CCC(c3nc(-c4ccccc4C)no3)CC2)cc1"
  endpoint-unit: "%"
  activity at 1 µM: 6.58
- molecular-string: "Clc1ccc(CN2CCC(c3nc(-c4cccs4)no3)CC2)cc1"
  endpoint-unit: "%"
  activity at 1 µM: 0.44

Moving on to another molecule below.
Enter measured activity at 1 µM, system Dopamine, D4.4 (Human Recombinant) (Homo sapiens), for the molecule shown: Cc1ccc(-c2noc(C3CCN(Cc4ccc(Cl)c(Cl)c4)CC3)n2)cc1
46.6

* * *

// values below are reported activity at 0.1 µM
Molecular target: Dopamine, D4.4 (Human Recombinant) (Homo sapiens)
Construct: expressed in transfected cells; host or cells: CHO cells (membranes)
Sequence (P21917 1-419): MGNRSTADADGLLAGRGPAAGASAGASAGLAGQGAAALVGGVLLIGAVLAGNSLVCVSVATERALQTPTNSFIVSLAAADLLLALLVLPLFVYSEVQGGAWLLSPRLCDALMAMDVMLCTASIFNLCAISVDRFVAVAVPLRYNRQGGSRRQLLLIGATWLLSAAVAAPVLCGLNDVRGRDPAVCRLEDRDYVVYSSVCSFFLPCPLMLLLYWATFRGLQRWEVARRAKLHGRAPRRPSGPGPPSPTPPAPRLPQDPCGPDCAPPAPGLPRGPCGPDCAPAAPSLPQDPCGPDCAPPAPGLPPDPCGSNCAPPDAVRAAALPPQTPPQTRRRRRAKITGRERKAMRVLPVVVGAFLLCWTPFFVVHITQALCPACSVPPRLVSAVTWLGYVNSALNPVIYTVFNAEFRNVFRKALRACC
Assay: dopamine D4.4 receptor binding assay, [3H]spiperone, human recombinant (CHO cells)
Settings: 1 h, concentration 1.0E-7, average, N = 2, read-out: % Specific Binding
Output spec: scalar in %, unitless text.

Use the examples below as a reference point.
- molecular-string: "Clc1cccc(CN2CCC(c3nc(-c4cccs4)no3)CC2)c1"
  activity at 0.1 µM [%]: 29.2
- molecular-string: "Cc1ccc(-c2noc(C3CCN(Cc4ccc(Cl)c(Cl)c4)CC3)n2)cc1"
  activity at 0.1 µM [%]: 76.8
- molecular-string: "Clc1ccc(CN2CCC(c3nc(-c4cccs4)no3)CC2)cc1"
  activity at 0.1 µM [%]: 22.8

Provide activity at 0.1 µM, tested on Dopamine, D4.4 (Human Recombinant) (Homo sapiens), for COc1ccc(CN2CCC(c3nc(-c4ccccc4C)no3)CC2)cc1 .
47.5
